Value source: PubChem BioAssay AID1963972

# viability, T/C listing for each entry below
System: 945468-187-T-J2-PDC spheroids viability;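 also: spheroids exposed to compounds for seven days before reading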
Assay: Anticancer human tumor 945468-187-T-J2-PDC patient-derived rectal carcinoma cell line growth inhibition [PI3K]
Conditions: second compound 0.0316 µM; first compound 0.316 µM; active compounds read low; spheroids with HUVEC and MSC

Consider the worked cases shown below.
Compound | Experimental target | viability, T/C
CCN1CCN(Cc2ccc(Nc3ncc(F)c(-c4cc(F)c5nc(C)n(C(C)C)c5c4)n3)nc2)CC1 + CC(Nc1ncnc2nc[nH]c12)c1cc2cccc(Cl)c2c(=O)n1-c1ccccc1 | 945468-187-T-J2-PDC spheroids viability | 100%
CNC(=O)c1ccc(N2C(=S)N(c3ccc(C#N)c(C(F)(F)F)c3)C(=O)C2(C)C)cc1F + COc1c(OCCCN2CCOCC2)ccc2c3n(c(=NC(=O)c4cnc(N)nc4)nc12)CCN3 | 945468-187-T-J2-PDC spheroids viability | 113%

Query compound follows.
Entry under review: CCCS(=O)(=O)Nc1ccc(F)c(C(=O)c2c[nH]c3ncc(-c4ccc(Cl)cc4)cc23)c1F + Cc1nc(NC(=O)N2CCCC2C(N)=O)sc1-c1ccnc(C(C)(C)C(F)(F)F)c1 . Reported viability, T/C?
67.6%
